Assay: Basic photochemical properties: one-photon photolysis / quantum yield determination by comparison with MNI-Glu
Format: physicochemical
Details: pH 7.4, compared with MNI-Glu
MEASURED_ATTRIBUTE: quantum yield of photolysis

INSERT INTO assay_data (smiles_entry, measured_attribute, data_value) VALUES
  ('NCCCC(=O)N1CCc2c(OCC(=O)O)ccc([N+](=O)[O-])c21', 'quantum yield of photolysis', 0.1),
  ('NCCCC(=O)N1CCc2c(OCC(=O)O)c([N+](=O)[O-])cc([N+](=O)[O-])c21', 'quantum yield of photolysis', 0.6);

---

Assay: Basic photochemical properties: one-photon photolysis / quantum yield determination by comparison with MNI-Glu
Type: physicochemical
Details: Table 1; measured against MNI-Glu, filtered 280-400 nm Hg lamp
MEASURED_ATTRIBUTE: φ, quantum yield

INSERT INTO measurements (molecule, measured_attribute, data_value) VALUES
  ('NC(CCC(=O)N1CCc2c(OCC(=O)O)ccc([N+](=O)[O-])c21)C(=O)O (centres unmarked) [CNI-Glu, 4-carboxymethoxy-7-nitroinlinylglutamate]', 'φ, quantum yield', 0.1),
  ('NCCCC(=O)N1CCc2c(OCC(=O)O)ccc([N+](=O)[O-])c21', 'φ, quantum yield', 0.1),
  ('N[C@@H](CCC(=O)N1CCc2c(OCC(=O)O)c([N+](=O)[O-])cc([N+](=O)[O-])c21)C(=O)O', 'φ, quantum yield', 0.5),
  ('NCCCC(=O)N1CCc2c(OCC(=O)O)c([N+](=O)[O-])cc([N+](=O)[O-])c21', 'φ, quantum yield', 0.6),
  ('COc1ccc([N+](=O)[O-])c2c1CCN2C(=O)CC[C@H](N)C(=O)O [MNI-Glu, Methoxynitroindoline-caged L-glutamate, reference compound]', 'φ, quantum yield', 0.085);
